- ASSAY_METHOD_TEXT: AUC (0 to infinity) in Sprague-Dawley rat at 20 mg/kg, po measured upto 48 hrs by LC-MS/MS analysis
- Type: ADME, organism-based
- MEASUREMENT_CONDITIONS: in vivo
MEASUREMENT_TYPE: AUC(0-inf) (ng·h/mL)

O=C(Nc1ccc(Oc2ccnc(NC(=O)N3CC(O)C3)c2)c(F)c1)c1cn(-c2cccnc2)nn1    46100

###

- TEST_TARGET: Vascular endothelial growth factor receptor 1 (Homo sapiens, UniProt P17948)
- Sequence (P17948 whole entry): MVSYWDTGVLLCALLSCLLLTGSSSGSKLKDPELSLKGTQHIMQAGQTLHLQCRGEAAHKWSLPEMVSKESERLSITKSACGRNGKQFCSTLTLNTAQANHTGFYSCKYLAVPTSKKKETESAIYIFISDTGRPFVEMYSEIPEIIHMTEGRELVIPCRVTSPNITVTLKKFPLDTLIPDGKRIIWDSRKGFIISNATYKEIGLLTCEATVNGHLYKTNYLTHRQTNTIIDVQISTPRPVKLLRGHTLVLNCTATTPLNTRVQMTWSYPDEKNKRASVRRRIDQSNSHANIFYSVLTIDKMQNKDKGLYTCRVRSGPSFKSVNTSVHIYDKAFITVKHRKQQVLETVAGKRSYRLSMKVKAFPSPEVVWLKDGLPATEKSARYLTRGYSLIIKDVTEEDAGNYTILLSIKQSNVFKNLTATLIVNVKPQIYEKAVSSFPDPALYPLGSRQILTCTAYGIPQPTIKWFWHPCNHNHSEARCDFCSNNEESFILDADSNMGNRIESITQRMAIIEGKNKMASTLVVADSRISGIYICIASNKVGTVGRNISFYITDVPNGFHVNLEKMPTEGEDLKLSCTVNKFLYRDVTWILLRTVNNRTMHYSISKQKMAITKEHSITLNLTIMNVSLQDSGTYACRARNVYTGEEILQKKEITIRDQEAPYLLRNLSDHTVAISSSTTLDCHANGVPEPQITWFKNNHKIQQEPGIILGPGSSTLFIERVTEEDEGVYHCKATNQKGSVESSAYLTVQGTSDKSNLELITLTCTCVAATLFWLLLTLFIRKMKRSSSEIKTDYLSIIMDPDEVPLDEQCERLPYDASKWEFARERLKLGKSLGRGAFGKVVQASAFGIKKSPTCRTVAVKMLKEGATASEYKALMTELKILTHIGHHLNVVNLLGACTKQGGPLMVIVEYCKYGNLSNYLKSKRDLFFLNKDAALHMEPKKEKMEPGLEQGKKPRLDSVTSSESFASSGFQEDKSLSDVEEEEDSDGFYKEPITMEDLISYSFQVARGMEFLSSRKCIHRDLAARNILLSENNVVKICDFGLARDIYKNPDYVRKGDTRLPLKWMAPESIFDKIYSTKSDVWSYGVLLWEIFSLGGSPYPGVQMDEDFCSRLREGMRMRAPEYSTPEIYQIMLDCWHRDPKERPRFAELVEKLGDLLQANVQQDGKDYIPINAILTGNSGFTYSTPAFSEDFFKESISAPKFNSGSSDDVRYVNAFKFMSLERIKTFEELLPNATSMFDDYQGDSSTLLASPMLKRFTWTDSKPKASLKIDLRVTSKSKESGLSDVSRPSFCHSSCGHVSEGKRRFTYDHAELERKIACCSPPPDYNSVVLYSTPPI
MEASUREMENT_TYPE: IC50

O=C(Nc1ccc(Oc2ccnc(NC(=O)N3CC(O)C3)c2)c(F)c1)c1cn(-c2cccnc2)nn1    588 nM
